pKi: −log10 of the molar value.
Dear all, this message contains pKi results, target or system rat mGluR1 (Rattus norvegicus).

Solved cases below.
CCOC(=O)CC(=O)c1sc2ncccc2c1-c1ccc(C)cc1 [Compound 22] = > 6.30
CN(Cc1ccc(F)cc1)C(=O)c1sc2ncccc2c1-c1ccc(Cl)cc1 [Compound 34] = 5.82 to 6.30
O=C(CCc1cccc(F)c1)c1sc2ncccc2c1-c1ccc(F)cc1 [Compound 4] = > 6.30

# input # pKi lookup, item O=C(CCc1cccs1)c1sc2ncccc2c1-c1ccc(F)cc1 [Compound 18]
# output > 6.30

---

# study-system: rat mGluR1 (Rattus norvegicus, UniProt P23385)
# Sequence (P23385 19-1199): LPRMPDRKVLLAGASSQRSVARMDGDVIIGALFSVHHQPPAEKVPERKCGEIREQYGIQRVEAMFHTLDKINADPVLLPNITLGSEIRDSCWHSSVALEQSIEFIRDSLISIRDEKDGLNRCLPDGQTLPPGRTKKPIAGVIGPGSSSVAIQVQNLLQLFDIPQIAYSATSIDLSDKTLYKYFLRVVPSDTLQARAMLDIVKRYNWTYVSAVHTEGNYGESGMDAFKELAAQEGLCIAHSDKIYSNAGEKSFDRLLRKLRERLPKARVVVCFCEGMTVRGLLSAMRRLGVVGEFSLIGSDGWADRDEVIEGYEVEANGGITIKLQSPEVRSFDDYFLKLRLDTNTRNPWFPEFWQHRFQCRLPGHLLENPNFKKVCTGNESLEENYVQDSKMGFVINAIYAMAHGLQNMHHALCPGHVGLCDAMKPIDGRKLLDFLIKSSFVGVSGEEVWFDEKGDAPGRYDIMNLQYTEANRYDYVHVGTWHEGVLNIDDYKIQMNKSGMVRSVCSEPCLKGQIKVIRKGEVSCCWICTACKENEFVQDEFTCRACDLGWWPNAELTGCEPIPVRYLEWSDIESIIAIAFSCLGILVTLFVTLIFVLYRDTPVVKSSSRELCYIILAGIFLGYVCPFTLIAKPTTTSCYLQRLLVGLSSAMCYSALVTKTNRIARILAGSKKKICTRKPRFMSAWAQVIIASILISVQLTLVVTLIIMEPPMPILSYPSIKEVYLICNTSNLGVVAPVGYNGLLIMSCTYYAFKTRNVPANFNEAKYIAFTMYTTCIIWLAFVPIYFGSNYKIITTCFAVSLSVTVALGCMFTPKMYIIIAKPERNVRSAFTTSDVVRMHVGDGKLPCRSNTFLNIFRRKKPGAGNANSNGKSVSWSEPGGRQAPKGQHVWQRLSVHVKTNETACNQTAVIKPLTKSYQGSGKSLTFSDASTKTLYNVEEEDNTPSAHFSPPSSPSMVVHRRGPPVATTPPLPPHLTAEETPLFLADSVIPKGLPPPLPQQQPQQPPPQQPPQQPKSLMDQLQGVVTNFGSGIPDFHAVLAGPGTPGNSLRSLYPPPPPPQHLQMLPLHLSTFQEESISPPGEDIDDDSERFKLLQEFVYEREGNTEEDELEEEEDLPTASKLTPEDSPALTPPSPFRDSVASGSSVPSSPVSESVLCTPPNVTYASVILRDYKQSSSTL
pKi: −log10 of the molar value.
result-type: pKi

O=C(CCc1ccsc1)c1sc2ncccc2c1-c1ccc(F)cc1 [Compound 19] = > 6.30
CCOC(=O)CC(=O)c1sc2ncccc2c1-c1ccc(F)cc1 [Compound 24] = > 6.30

--- query ---
# input Recorded pKi for O=C(Nc1nccs1)c1sc2ncccc2c1-c1ccc(Cl)cc1 [Compound 35] with rat mGluR1 (Rattus norvegicus, UniProt P23385), please?
# output < 5.82
